observable: logP

Q: For the compound CCCCCCCCCCCCCCCCCC[n+]1ccccc1.[I-] , what logP is on record?
Result: 3.68

Q: // same read-out, input: CCN(CC)CCCNC(=O)c1ccccc1
Result: 1.56

Q: // same read-out, input: CCCCCCCCCCCCCC[n+]1cc(C)cc(C)c1.[I-]
Result: 2.9

Q: // same read-out, input: O=C1C(O)=C(CC=C(Cl)Cl)C(=O)c2ccccc21
Result: 3.1

Q: // same read-out, input: OCC1C(Cl)C(Cl)C(Cl)C(Cl)C1Cl (stereo not drawn)
Result: 2.94

Q: // same read-out, input: CCc1ccc(N=NN(C)C(C)=O)cc1
Result: 3.36

Q: // same read-out, input: Nc1ncc(Cc2cc(Cl)c(Cl)c(Cl)c2)c(N)n1
Result: 3.64

Q: // same read-out, input: CCOC(=O)c1ccc2ncccc2c1
Result: 2.64

Q: // same read-out, input: CCCCOC(=O)N(CCCC)SN(C)C(=O)ON=C(C)SC
Result: 4.2

Q: // same read-out, input: [O-][n+]1ccccc1SCc1ccccc1
Result: 1.24

Q: // same read-out, input: CCOC(=O)C(=Cc1ccccc1)C(=O)OCC
Result: 3.13

Q: // same read-out, input: O=NN1CCC(O)CC1
Result: -0.89

Q: // same read-out, input: CSCN1C(=O)CN=C(c2ccccc2)c2cc(Cl)ccc21
Result: 3.32

Q: // same read-out, input: CC1(C)N=C(N)N=C(N)N1c1ccc(N)cc1
Result: -0.59

Q: // same read-out, input: Oc1cc(Cl)c(NC2=NCCN2)c(Cl)c1
Result: 1.52

Q: // same read-out, input: [O-][n+]1ccc(Cl)c2ccccc21
Result: 1.08

Q: // same read-out, input: CCCC12CC3CC(CC(N)(C3)C1)C2
Result: 3.76

Q: // same read-out, input: FC1C(Cl)C(Cl)C(Cl)C(Cl)C1Cl (stereo not drawn)
Result: 3.19

Q: // same read-out, input: CCC(=O)Nc1n[nH]c(NC(=O)CC)n1
Result: 0.07

Q: // same read-out, input: CSc1ccc2c(c1)C(c1ccccc1)=NCC(=O)N2
Result: 2.92

Q: // same read-out, input: CS(=O)(=O)Nc1cccc(NS(C)(=O)=O)c1
Result: 0.07

Q: // same read-out, input: NC(=O)CCCCn1nnc2ccccc21
Result: 0.58

Q: // same read-out, input: COc1ccc(C=C[N+](=O)[O-])cc1
Result: 2.2

Q: // same read-out, input: Nc1cccc(OC(=O)CNC(=O)c2ccccc2)c1
Result: 1.3

Q: // same read-out, input: O=S(=O)(Nc1cccc(Br)c1)C(F)(F)F
Result: 3.82

Q: // same read-out, input: CC1C(C)N(N=O)C(C)C(C)N1N=O (stereo not drawn)
Result: 0.91

Q: // same read-out, input: COC12C(COC(N)=O)C3=C(C(=O)C(C)=C(Nc4nccs4)C3=O)N1CC1NC12 (stereo not drawn)
Result: 0.62

Q: // same read-out, input: CN(C)C(=O)Nc1cccc(OCCc2ccccc2)c1
Result: 3.39

###

observable: logP
Please give the numeric answer without any surrounding text.

Q: For the compound Nc1nc(N)nc(-c2cc(Br)ccc2Cl)n1 , what logP is on record?
Result: 2.04

Q: // same read-out, input: CCOP(N)(=O)SCC (configuration not stated)
Result: 0.15

Q: // same read-out, input: CCN(C)c1nc(N(C)CC)nc(N(C)CC)n1
Result: 3.9

Q: // same read-out, input: O=C(O)CCCCCn1nnc2ccccc21
Result: 0.86

Q: // same read-out, input: CCCCCCCCCCCCCCCC[n+]1ccc(C)cc1C.[I-]
Result: 3.9

Q: // same read-out, input: CCC(CC)(OC)C(=O)NC(N)=O
Result: 0.96

Q: // same read-out, input: O=C(O)c1cccc(CSc2ccccc2)c1O
Result: 4.28

Q: // same read-out, input: CC(C)(C)NC(=O)NN
Result: -0.81

Q: // same read-out, input: CCCC1(CC)C(=O)NC(=O)N(C)C1=O (configuration not stated)
Result: 1.65

Q: // same read-out, input: COc1cc(Cc2cnc(N)nc2N)ccc1OCc1ccccc1
Result: 2.66

Q: // same read-out, input: COCN1C(=O)CN=C(c2ccccc2)c2cc(Cl)ccc21
Result: 2.86

Q: // same read-out, input: CSc1ccccc1/N=N/N(C)C
Result: 3.13

Q: // same read-out, input: CN(SN(C)C(=O)OC(C)(C)C)C(=O)Oc1cccc2c1OC(C)(C)C2
Result: 4.3

Q: // same read-out, input: CC(=O)N(CCCl)c1ccc(CC(=O)O)cc1
Result: 1.2

Q: // same read-out, input: C[N+](C)(C)Cc1cccc(Cl)c1.[Br-]
Result: -1.81

Q: // same read-out, input: CC(=O)N=C1SC(=Cc2ccc([N+](=O)[O-])o2)C(=O)N1C
Result: 1.21

Q: // same read-out, input: CCCCCCCCCCCCCC[n+]1ccccc1C.[I-]
Result: 2.27

Q: // same read-out, input: CC(C)(C)c1ccc(OC2OC(CO)C(O)C(O)C2O)cc1 (configuration not stated)
Result: 1.18

Q: // same read-out, input: O=S1(=O)NC(C2CCCC2)=Nc2ccccc21
Result: 1.83

Q: // same read-out, input: COc1cc(OC)nc(-n2[nH]c(=O)cc2C)n1
Result: 1.16

Q: // same read-out, input: OCCCCCCn1nnc2ccccc21
Result: 1.71

Q: // same read-out, input: CC(C)NC(=O)C=Cc1ncc([N+](=O)[O-])s1
Result: 1.76

Q: // same read-out, input: O=S1(=O)N=C(Cc2ccccc2)Nc2ccccc21
Result: 1.89

Q: // same read-out, input: CCCCCCCCCCOn1c(=O)[nH]c(C)c(Br)c1=O
Result: 4.65

Q: // same read-out, input: CSC(C)=NOC(=O)N(C)SN(C(=O)c1ccc(C)cc1)C(C)C
Result: 3.4

Q: // same read-out, input: O=[N+]([O-])c1nccn1C1OC(CO)C(O)C1O (configuration not stated)
Result: -1.15

Q: // same read-out, input: CC1=Nc2cc(N)c(Cl)cc2S(=O)(=O)N1
Result: 0.63
